- Tested on: SR
- experimentNotes: NCI tumour cell line growth inhibition, 48 h
Calls of active or inactive are those of the source. No stated cut-off is given here; in the data, active = GI50 up to about 1.1 µM and inactive = higher. *1 amine or outer side, *2 acyl side, *3 side chain or, on linkers, in order; H or OH if unused. Where a SMILES comes first, the peptide text is derived from it. Bridges are numbered along the chain shown (N, C = ends). Roman numbers before positions name the chains, in order. [ ]: non-standard residue; d: D form. Actinocin(9to1) = Cc1c2oc3c(C)ccc(C(=O)[*:1])c3nc-2c(C(=O)[*:2])c(N)c1=O; NMeV = CN[CH](C(=O)O)C(C)C; Sar = CNCC(=O)O
Outcomes: true (1) for active, false (0) for inactive

[[record]]
compound = "CC1=Nc2ccccc2S(=O)(=O)N1"
category = "false (0)"

[[record]]
compound = "O=C1[C@H](O)[C@@H]2C(O)O[C@H]3[C@@H]2N1C[C@H]3[Si](c1ccccc1)(c1ccccc1)c1ccccc1 (some centres not stated)"
category = "false (0)"

[[record]]
compound = "Cc1c2oc3c(C)ccc(C(=O)NC4C(=O)NC(C(C)C)C(=O)N5CCCC5C(=O)N(C)CC(=O)N(C)C(C(C)C)C(=O)OC4C)c3nc-2c(C(=O)NC2C(=O)NC(C(C)C)C(=O)N3CCCC3C(=O)N(C)CC(=O)N(C)C(C(C)C)C(=O)OC2C)c(N)c1=O (configuration not stated) (I: TVP[Sar][NMeV] / II: TVP[Sar][NMeV]; ester I:1-I:C, II:1-II:C; linker I:N-II:N via Actinocin(9to1); configuration not given here)"
category = "true (1)"

[[record]]
compound = "O=C(c1nc2ccc(Cl)cc2[nH]c1=O)C(O)c1cccc([N+](=O)[O-])c1 (configuration not stated)"
category = "false (0)"

[[record]]
compound = "NCCCOc1ccc([N+](=O)[O-])cc1Cl"
category = "false (0)"

[[record]]
compound = "CCOC(C/N=c1/nc(N(C)C)ss1)OCC"
category = "false (0)"

[[record]]
compound = "Cc1nc(O)nc(N/N=C/c2c3ccccc3c(Cl)c3ccccc23)c1C(=O)Nc1ccc(Cl)cc1"
category = "false (0)"

